Target: NEK5 (human) (UniProt Q6P3R8)
Sequence (Q6P3R8 whole entry, looked up): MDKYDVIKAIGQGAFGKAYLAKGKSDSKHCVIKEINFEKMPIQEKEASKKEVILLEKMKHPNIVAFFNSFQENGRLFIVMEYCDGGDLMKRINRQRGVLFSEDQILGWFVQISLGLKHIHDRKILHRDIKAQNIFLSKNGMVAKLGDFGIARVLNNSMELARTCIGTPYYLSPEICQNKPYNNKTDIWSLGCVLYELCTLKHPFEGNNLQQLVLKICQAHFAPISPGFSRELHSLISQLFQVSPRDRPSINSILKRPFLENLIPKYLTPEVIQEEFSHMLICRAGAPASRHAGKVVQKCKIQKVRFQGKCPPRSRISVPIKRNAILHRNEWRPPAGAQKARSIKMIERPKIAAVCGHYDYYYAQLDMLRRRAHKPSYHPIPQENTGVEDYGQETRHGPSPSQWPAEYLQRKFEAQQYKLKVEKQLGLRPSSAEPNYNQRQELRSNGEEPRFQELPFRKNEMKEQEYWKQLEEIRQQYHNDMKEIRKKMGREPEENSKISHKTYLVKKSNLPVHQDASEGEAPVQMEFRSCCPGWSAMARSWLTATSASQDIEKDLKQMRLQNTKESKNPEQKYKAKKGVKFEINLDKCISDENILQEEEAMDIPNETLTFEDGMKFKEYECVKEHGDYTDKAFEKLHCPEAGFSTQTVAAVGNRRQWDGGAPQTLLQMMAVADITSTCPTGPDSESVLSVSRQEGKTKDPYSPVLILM
Test: KINOMEscan competition binding
Settings: compound 10.0 µM
Below, each entry is listed alongside its reported kinase still bound, per cent of control.
Give the figure together with its unit, number first.

Below: 3 compounds and their reported kinase still bound, per cent of control.
{"columns": ["Compound", "kinase still bound, per cent of control"],
 "data": [
  ["CCc1nc(-c2cccc(C)c2)c(-c2ccnc(NC(=O)c3ccccc3)c2)s1", "100%"],
  ["COc1ccc(N(C(=O)Oc2cc(C(=O)Nc3cccc(C(F)(F)F)c3)ccc2C)c2ccnc(Nc3ccc(N4CCN(C)CC4)cc3)n2)c(OC)c1", "100%"],
  ["Cc1cn(-c2cc(C(=O)Nc3ccc(C)c(NC(=O)c4ccno4)c3)cc(C(F)(F)F)c2)cn1", "100%"]
]}

stdin: I have this compound here, CCN1CCN(Cc2ccc(NC(=O)c3ccc(C)c(/C=C/c4cnc5[nH]ccc5c4OC)c3)cc2C(F)(F)F)CC1 , and I need its recorded kinase still bound, per cent of control.
stdout: 4.3%

stdin: Find the recorded kinase still bound, per cent of control belonging to COc1cc(N2CCC(C(N)=O)CC2)ccc1Nc1nc(N)c(Cl)c(Nc2ccccc2S(=O)(=O)C(C)C)n1 and report it.
stdout: 100%

stdin: // query kinase still bound, per cent of control value for entry COc1cc2ncnc(Nc3cccc(Cl)c3)c2cc1OC
stdout: 93%

stdin: Returns the measured kinase still bound, per cent of control for the input compound. Input: CCCS(=O)(=O)Nc1ccc(F)c(C(=O)c2c[nH]c3ncc(Cl)cc23)c1F
stdout: 100%

stdin: Fill blank: measured kinase still bound, per cent of control of the compound COc1cc(C)c(Sc2cnc(NC(=O)c3ccc(CNC(C)C(C)C)cc3)s2)cc1C(=O)N1CCN(C(C)=O)CC1 (stereo not drawn) is ____.
stdout: 100%

stdin: What value of kinase still bound, per cent of control has been reported for the following compound? CC1=C(C(=O)Nc2cc3cn[nH]c3cc2F)C(c2ccc(C(F)(F)F)cc2)CC(=O)N1 (stereo not drawn)
stdout: 90%

stdin: Dear colleague, I am looking for the recorded kinase still bound, per cent of control of the following compound: CC(=O)c1c(C)c2cnc(Nc3ccc(N4CCNCC4)cn3)nc2n(C2CCCC2)c1=O
stdout: 27%

stdin: Would you kindly share the measured kinase still bound, per cent of control for O=c1[nH]c2ccccc2n1C1CCN(Cc2ccc(-c3nc4cc5[nH]cnc5cc4nc3-c3ccccc3)cc2)CC1 ?
stdout: 97%

stdin: // query kinase still bound, per cent of control value for entry CCN(CCO)CCCOc1ccc2c(Nc3cc(CC(=O)Nc4cccc(F)c4)[nH]n3)ncnc2c1
stdout: 100%

stdin: Return reported kinase still bound, per cent of control; argument: COc1cc2c(Nc3ccc(NC(=O)c4ccccc4)cc3)ncnc2cc1OCCCN1CCOCC1
stdout: 100%

stdin: Need kinase still bound, per cent of control of CNC(=O)Nc1ccc(-c2nc(N3CC4CCC(C3)O4)c3cnn(C4CCC5(CC4)OCCO5)c3n2)cc1 , thanks.
stdout: 81%

stdin: Could you share which kinase still bound, per cent of control value was measured for N#C/C(=C1/Nc2ccccc2S1)c1ccnc(NCCc2cccnc2)n1 ?
stdout: 100%

stdin: Entry under review: N#Cc1cc(-c2ccnc(Nc3ccc(-n4cnc(-c5cccnc5)n4)cc3)n2)cc(N2CCOCC2)c1 . Reported kinase still bound, per cent of control?
stdout: 1.4%

stdin: Fill in the blank: the reported kinase still bound, per cent of control of C=CC(=O)Nc1ccc(C(=O)c2sc(Nc3ccc(N4CCN(C)CC4)cc3OC)nc2N)cc1 is ____.
stdout: 100%

stdin: Recorded kinase still bound, per cent of control of CCOc1cc(N2CCC(O)CC2)ccc1Nc1ncc2c(n1)N(C)c1ccccc1C(=O)N2C , please.
stdout: 100%

---

Entries and their kinase still bound, per cent of control values follow.
Molecular target: FGR (human)
Experiment: KINOMEscan competition binding
Details: compound 10.0 µM
# number only, unit % dropped from output

Answered cases to consult:
{"columns": ["Compound", "Result Value"],
 "data": [
  ["CC(=O)c1c(C)c2cnc(Nc3ccc(N4CCNCC4)cn3)nc2n(C2CCCC2)c1=O", 71],
  ["COc1cc(C)c(Sc2cnc(NC(=O)c3ccc(CNC(C)C(C)C)cc3)s2)cc1C(=O)N1CCN(C(C)=O)CC1 (stereo not drawn)", 100],
  ["CNC(=O)Nc1ccc(-c2nc(N3CC4CCC(C3)O4)c3cnn(C4CCC5(CC4)OCCO5)c3n2)cc1", 100]
]}

stdin: kinase still bound, per cent of control for CCN1CCN(Cc2ccc(NC(=O)c3ccc(C)c(/C=C/c4cnc5[nH]ccc5c4OC)c3)cc2C(F)(F)F)CC1 ?
stdout: 0.15

stdin: Fill blank: measured kinase still bound, per cent of control of the compound O=c1[nH]c2ccccc2n1C1CCN(Cc2ccc(-c3nc4cc5[nH]cnc5cc4nc3-c3ccccc3)cc2)CC1 is ____.
stdout: 100

stdin: Bench note: what kinase still bound, per cent of control did CC1=C(C(=O)Nc2cc3cn[nH]c3cc2F)C(c2ccc(C(F)(F)F)cc2)CC(=O)N1 (stereo not drawn) show?
stdout: 78

stdin: Recorded kinase still bound, per cent of control for COc1cc(N2CCC(C(N)=O)CC2)ccc1Nc1nc(N)c(Cl)c(Nc2ccccc2S(=O)(=O)C(C)C)n1 , please?
stdout: 100

---

Molecular target: ERBB3 (human)
Test: KINOMEscan competition binding
Conditions: compound 10.0 µM
Entries whose kinase still bound, per cent of control is below 70% take Fulfilled; entries at or above 70% take Not fulfilled.

Worked examples follow.
{"columns": ["Compound", "Cat"],
 "data": [
  ["O=c1[nH]c2ccccc2n1C1CCN(Cc2ccc(-c3nc4cc5[nH]cnc5cc4nc3-c3ccccc3)cc2)CC1", "Not fulfilled"],
  ["Cc1cn(-c2cc(C(=O)Nc3ccc(C)c(NC(=O)c4ccno4)c3)cc(C(F)(F)F)c2)cn1", "Not fulfilled"],
  ["CCCS(=O)(=O)Nc1ccc(F)c(C(=O)c2c[nH]c3ncc(Cl)cc23)c1F", "Fulfilled"]
]}

stdin: Item CCOc1cc(N2CCC(O)CC2)ccc1Nc1ncc2c(n1)N(C)c1ccccc1C(=O)N2C : kinase still bound, per cent of control beneath 70%, strictly?
stdout: Not fulfilled

stdin: Does the reported kinase still bound, per cent of control of the following compound sit strictly below 70%? COc1cc2ncnc(Nc3cccc(Cl)c3)c2cc1OC
stdout: Fulfilled

stdin: Is kinase still bound, per cent of control strictly under 70% for the entry N#C/C(=C1/Nc2ccccc2S1)c1ccnc(NCCc2cccnc2)n1 ?
stdout: Fulfilled

stdin: Confirm or reject: kinase still bound, per cent of control of CCN(CCO)CCCOc1ccc2c(Nc3cc(CC(=O)Nc4cccc(F)c4)[nH]n3)ncnc2c1 lies strictly below 70%
stdout: Fulfilled

stdin: Is kinase still bound, per cent of control of CCN1CCN(Cc2ccc(NC(=O)c3ccc(C)c(/C=C/c4cnc5[nH]ccc5c4OC)c3)cc2C(F)(F)F)CC1 strictly below 70%?
stdout: Not fulfilled

stdin: In the record for CNC(=O)Nc1ccc(-c2nc(N3CC4CCC(C3)O4)c3cnn(C4CCC5(CC4)OCCO5)c3n2)cc1 , is kinase still bound, per cent of control less than 70%?
stdout: Not fulfilled

stdin: Problem: For the compound CCc1nc(-c2cccc(C)c2)c(-c2ccnc(NC(=O)c3ccccc3)c2)s1 , is kinase still bound, per cent of control under 70%?
stdout: Fulfilled

stdin: Item CC1=C(C(=O)Nc2cc3cn[nH]c3cc2F)C(c2ccc(C(F)(F)F)cc2)CC(=O)N1 (centres undefined) : kinase still bound, per cent of control beneath 70%, strictly?
stdout: Not fulfilled

stdin: Input COc1cc2c(Nc3ccc(NC(=O)c4ccccc4)cc3)ncnc2cc1OCCCN1CCOCC1 ; condition: kinase still bound, per cent of control strictly below 70%. Does it hold?
stdout: Fulfilled

stdin: Lab log: compare recorded kinase still bound, per cent of control with 70%; is it strictly lower for C=CC(=O)Nc1ccc(C(=O)c2sc(Nc3ccc(N4CCN(C)CC4)cc3OC)nc2N)cc1 ?
stdout: Not fulfilled

---

Reported kinase still bound, per cent of control by item:
Molecular target: CAMKK1 (human) (UniProt Q8N5S9)
Sequence (Q8N5S9 whole entry, looked up): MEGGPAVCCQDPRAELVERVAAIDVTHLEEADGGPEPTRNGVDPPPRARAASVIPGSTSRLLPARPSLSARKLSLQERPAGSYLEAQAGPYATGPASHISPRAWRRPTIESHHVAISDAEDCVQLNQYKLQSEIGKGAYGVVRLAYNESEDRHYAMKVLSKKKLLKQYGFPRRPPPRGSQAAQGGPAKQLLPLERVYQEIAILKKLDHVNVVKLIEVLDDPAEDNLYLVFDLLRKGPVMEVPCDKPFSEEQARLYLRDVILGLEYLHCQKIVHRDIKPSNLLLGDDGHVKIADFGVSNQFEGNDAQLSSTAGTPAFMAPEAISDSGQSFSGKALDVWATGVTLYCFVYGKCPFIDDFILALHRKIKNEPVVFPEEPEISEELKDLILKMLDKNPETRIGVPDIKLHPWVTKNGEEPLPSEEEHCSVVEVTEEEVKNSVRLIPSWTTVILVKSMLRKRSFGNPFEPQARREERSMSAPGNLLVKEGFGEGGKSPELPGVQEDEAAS
Experiment: KINOMEscan competition binding
Settings: compound 10.0 µM
Quick note: give the figure in %, leave out the unit.

{"columns": ["Structure", "Result Value"],
 "data": [
  ["C=CC(=O)Nc1ccc(C(=O)c2sc(Nc3ccc(N4CCN(C)CC4)cc3OC)nc2N)cc1", 3.3],
  ["N#Cc1cc(-c2ccnc(Nc3ccc(-n4cnc(-c5cccnc5)n4)cc3)n2)cc(N2CCOCC2)c1", 48],
  ["CCc1nc(-c2cccc(C)c2)c(-c2ccnc(NC(=O)c3ccccc3)c2)s1", 100],
  ["CCOc1cc(N2CCC(O)CC2)ccc1Nc1ncc2c(n1)N(C)c1ccccc1C(=O)N2C", 100]
]}

Now examine the next entry.
stdin: Look up kinase still bound, per cent of control: COc1cc2ncnc(Nc3cccc(Cl)c3)c2cc1OC
stdout: 74
